# System: E. coli TESEC Mtb Alr
# EXPERIMENT: growth (OD600 after 10 h); higher = more growth (less inhibition)
# COND: arabinose 100 nM; compound 0.1 mM; raw OD600 reference: median of DMSO wells 0.413, cell-free background 0.052
Where a name gives a salt, the structure may show the parent alone.
Criterion: growth meeting or surpassing 0.4. Met: YES. Not met: NO.

| MOLECULE | ASSAYED SYSTEM | DISCRETE LABEL |
| --- | --- | --- |
| CC[N+](CC)(CC)CCC(O)(c1ccccc1)C1CCCCC1 (centres undefined) [Tridihexethyl chloride] | E. coli TESEC Mtb Alr | YES |
| CN(CCCN1c2ccccc2CCc2ccccc21)CC(=O)c1ccc(Cl)cc1 | E. coli TESEC Mtb Alr | YES |
| Cc1ccc(C(=O)c2ccc(CC(=O)O)n2C)cc1 [Tolmetin sodium salt dihydrate] | E. coli TESEC Mtb Alr | NO |
| C[C@]12CC[C@H]3[C@@H](CCC4=CC(=O)CC[C@@]43C)[C@@H]1CC[C@@H]2C(=O)CO | E. coli TESEC Mtb Alr | NO |
